Sourced from patent US20130323786A1

Biological target: T1, LINGO-Fc (human, UniProt Q96FE5 40-538, limits assumed)
T1 construct: not shown: Fc part
T1 sequence: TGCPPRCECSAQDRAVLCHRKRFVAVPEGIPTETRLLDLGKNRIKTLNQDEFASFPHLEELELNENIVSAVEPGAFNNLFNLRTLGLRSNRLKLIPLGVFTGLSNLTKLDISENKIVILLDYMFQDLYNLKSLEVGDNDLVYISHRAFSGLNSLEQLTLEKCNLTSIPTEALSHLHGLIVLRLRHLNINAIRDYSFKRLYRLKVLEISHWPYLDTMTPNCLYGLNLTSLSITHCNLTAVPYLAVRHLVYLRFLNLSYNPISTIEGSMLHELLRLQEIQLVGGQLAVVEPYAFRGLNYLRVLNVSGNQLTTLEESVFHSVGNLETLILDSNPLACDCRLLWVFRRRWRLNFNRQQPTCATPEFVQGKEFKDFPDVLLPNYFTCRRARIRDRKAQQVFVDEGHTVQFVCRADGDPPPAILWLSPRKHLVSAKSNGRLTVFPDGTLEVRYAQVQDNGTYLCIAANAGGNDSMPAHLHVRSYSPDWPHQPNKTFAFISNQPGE
Assay: direct ELISA on LINGO-Fc; OD450 at saturation relative to Li33;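 further: binding to plate-coated LINGO-Fc read by OD450, with the value at maximal saturation divided by the corresponding Li33 value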
Criterion: Plateau Ratio strictly under 0.7 ratio. Met: met. Not met: not met.

[in] Given the entry Li33 variant W94L (SEQ ID NO:167) (antibody, V domains shown, unchanged chain from WT Li33) VH: EVQLLESGGGLVQPGGSLRLSCAASGFTFSIYPMFWVRQAPGKGLEWVSWIGPSGGITKYADSVKGRFTISRDNSKNTLYLQMNSLRAEDTATYYCAREGHNDWYFDLWGRGTLVTVSS VL: DIQMTQSPGTLSLSPGERATLSCRASQSVSSYLAWYQQKPGQAPRLLIYDASNRATGIPARFSGSGSGTEFTLTISSLQSEDFAVYYCQQYDKLPLTFGGGTKVEIKR , would its reported Plateau Ratio be below 0.7 ratio?
[out] not met

[in] Given Li33 variant I57N (SEQ ID NO:161) (antibody, V domains shown, unchanged chain from WT Li33) VH: EVQLLESGGGLVQPGGSLRLSCAASGFTFSIYPMFWVRQAPGKGLEWVSWIGPSGGNTKYADSVKGRFTISRDNSKNTLYLQMNSLRAEDTATYYCAREGHNDWYFDLWGRGTLVTVSS VL: DIQMTQSPGTLSLSPGERATLSCRASQSVSSYLAWYQQKPGQAPRLLIYDASNRATGIPARFSGSGSGTEFTLTISSLQSEDFAVYYCQQYDKWPLTFGGGTKVEIKR , is recorded Plateau Ratio strictly lower than 0.7 ratio?
[out] not met

[in] Is the reported Plateau Ratio for Li33 variant P53W (SEQ ID NO:154) (antibody, V domains shown, unchanged chain from WT Li33) VH: EVQLLESGGGLVQPGGSLRLSCAASGFTFSIYPMFWVRQAPGKGLEWVSWIGWSGGITKYADSVKGRFTISRDNSKNTLYLQMNSLRAEDTATYYCAREGHNDWYFDLWGRGTLVTVSS VL: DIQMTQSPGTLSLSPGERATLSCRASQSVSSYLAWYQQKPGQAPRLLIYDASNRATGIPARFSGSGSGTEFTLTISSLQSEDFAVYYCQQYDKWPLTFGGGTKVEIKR strictly below 0.7 ratio?
[out] met

[in] Report whether reported Plateau Ratio is lower than 0.7 ratio (strictly) for Li33 variant W94A (SEQ ID NO:165) (antibody, V domains shown, unchanged chain from WT Li33) VH: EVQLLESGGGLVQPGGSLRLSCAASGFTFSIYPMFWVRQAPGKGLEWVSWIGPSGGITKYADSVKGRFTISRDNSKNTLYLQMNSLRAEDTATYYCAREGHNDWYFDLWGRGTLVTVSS VL: DIQMTQSPGTLSLSPGERATLSCRASQSVSSYLAWYQQKPGQAPRLLIYDASNRATGIPARFSGSGSGTEFTLTISSLQSEDFAVYYCQQYDKAPLTFGGGTKVEIKR
[out] not met
